substrate: CIS F74, F116L-EloB/C (human), Q9NSE2; test: SPR; conditions: remark: other sources report otherwise
pIC50: −log10 of the molar value.
experimental-endpoint: pIC50

{"binder": "PVPDYTSIHIV (here or on the partner: phosphotyrosine at 595) [GHR pY595 peptide]", "measured-number": 5.15}
